Exercise: state measured EC50 for each of the compounds provided.
molecular target: human GLP-1R (Homo sapiens (Human), UniProt P43220, L260F); test: CHO GLP-1R Clone C6 - Assay 2 (HTRF cAMP agonist assay, low receptor density); conditions: read-out: Assay 2 EC50; CHO GLP-1R Clone C6 (low receptor density), cAMP HTRF; geometric mean
Sequence (P43220 24-463 L260F): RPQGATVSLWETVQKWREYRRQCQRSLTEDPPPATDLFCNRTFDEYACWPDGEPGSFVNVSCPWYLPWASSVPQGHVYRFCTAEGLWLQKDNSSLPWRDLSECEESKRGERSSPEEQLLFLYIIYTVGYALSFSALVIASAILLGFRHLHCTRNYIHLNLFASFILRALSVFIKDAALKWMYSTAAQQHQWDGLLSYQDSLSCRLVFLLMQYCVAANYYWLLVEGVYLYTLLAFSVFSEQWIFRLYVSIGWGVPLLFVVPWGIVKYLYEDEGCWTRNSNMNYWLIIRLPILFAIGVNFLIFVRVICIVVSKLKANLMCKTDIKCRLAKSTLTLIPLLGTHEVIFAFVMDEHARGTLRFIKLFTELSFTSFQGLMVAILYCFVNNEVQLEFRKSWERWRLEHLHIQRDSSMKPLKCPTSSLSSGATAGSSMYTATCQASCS

// solved cases for EC50 follow
COCCn1c(CN2CCC(c3cccc4c3OC(C)(c3ccc(C#N)cn3)O4)CC2)nc2ccc(C(=O)O)cc21 (stereo not shown) [Example 93] = > 20000 nM
COCCn1c(CN2CCC(c3cccc4c3OC(C)(c3ccc(C#N)cn3)O4)CC2)nc2ccc(C(=O)O)cc21 (stereo not shown) [Example 94] = 360 nM
O=C(O)c1ccc2nc(CN3CCC(c4cccc5c4O[C@@H](c4ccc(Cl)cc4F)O5)CC3)n(C[C@@H]3CCO3)c2c1F = 19 nM

// for each compound in input: emit EC50
1. CN(C)C(=O)Cn1c(CN2CCC(c3cccc4c3OC(C)(c3ccc(Cl)cc3F)O4)CC2)nc2ccc(C(=O)O)cc21 (stereo not shown)
2. CCn1cncc1Cn1c(CN2CCC(c3cccc4c3O[C@](C)(c3ccc(Cl)cc3F)O4)CC2)nc2ccc(C(=O)O)cc21 (single isomer, unassigned)

Out:
1. 850 nM
2. 1000 nM

// for each compound in input: emit EC50
1. Cn1cc(Cn2c(CN3CCC(c4cccc5c4OC(C)(c4ccc(Cl)cc4F)O5)CC3)nc3ccc(C(=O)O)cc32)nn1 (stereo not shown)
2. CN(C)C(=O)CCn1c(CN2CCC(c3cccc4c3OC(C)(c3ccc(Cl)cc3F)O4)CC2)nc2ccc(C(=O)O)cc21 (stereo not shown)

Out:
1. 66 nM
2. 680 nM

---

Exercise: state measured Emax for each of the compounds provided.
biological target: human GLP-1R (Homo sapiens, UniProt P43220, G168S); experiment: CHO GLP-1R Clone H6 - Assay 1 (HTRF cAMP agonist assay); assay type: cell-based; conditions: CHO GLP-1R Clone H6; arithmetic mean, relative to saturating GLP-1 (1 μM)
Sequence (P43220 24-463 G168S limits assumed): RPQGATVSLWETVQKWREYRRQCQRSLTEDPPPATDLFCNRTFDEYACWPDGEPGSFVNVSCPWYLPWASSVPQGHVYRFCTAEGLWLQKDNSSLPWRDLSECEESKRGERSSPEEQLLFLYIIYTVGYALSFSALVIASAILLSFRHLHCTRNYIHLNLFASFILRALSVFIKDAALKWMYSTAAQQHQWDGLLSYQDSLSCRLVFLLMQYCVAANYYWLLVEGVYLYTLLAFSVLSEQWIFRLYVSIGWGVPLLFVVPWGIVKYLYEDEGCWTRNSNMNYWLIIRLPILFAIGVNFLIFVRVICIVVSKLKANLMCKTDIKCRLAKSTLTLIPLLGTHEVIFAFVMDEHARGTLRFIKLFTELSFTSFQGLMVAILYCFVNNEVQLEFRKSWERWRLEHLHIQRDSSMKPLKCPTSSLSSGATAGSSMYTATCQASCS
Give bare numbers, in %.

Cn1cnc(Cn2c(CN3CCC(c4cccc5c4OC(C)(c4ccc(Cl)cc4F)O5)CC3)nc3ccc(C(=O)O)cc32)c1 (stereo not shown) [Example 77] = 89
COCCn1c(CN2CCN(c3cccc4c3OC(C)(c3ccc(Cl)cc3F)O4)CC2)nc2ccc(C(=O)O)cc21 (stereo not shown) [Example 19] = 87
CC1(c2ccc(Cl)cc2F)Oc2cccc(C3CCN(Cc4nc5ccc(C(=O)O)cc5n4Cc4cnco4)CC3)c2O1 (stereo not shown) [Example 69] = 100
COCCn1c(CN2CCC(c3cccc4c3OC(C)(c3ccc(C#N)cc3)O4)CC2)nc2ccc(C(=O)O)cc21 (stereo not shown) [Example 34] = 98
Cn1cnc(CCn2c(CN3CCC(c4cccc5c4OC(C)(c4ccc(Cl)cc4F)O5)CC3)nc3ccc(C(=O)O)cc32)c1 (stereo not shown) [Example 55] = 81
CC1(c2ccc(Cl)cc2F)Oc2cccc(C3CCN(Cc4nc5ccc(C(=O)O)cc5n4CC4CCOC4)CC3)c2O1 (stereo not shown) [Example 56] = 87

Now for another entry.
In: Indicate its recorded Emax; the compound in question is COCCn1c(CN2CCC(c3cccc4c3OC(C)(c3ccc(OC)cc3Cl)O4)CC2)nc2ccc(C(=O)O)cc21 (stereo not shown) [Example 83]
Out: 85

---

biological target: human GLP-1R (Homo sapiens, UniProt P43220, G168S); assay: CHO GLP-1R Clone H6 - Assay 1 (HTRF cAMP agonist assay); conditions: CHO GLP-1R Clone H6, cAMP HTRF; geometric mean
Exercise: state measured pEC50 for each of the compounds provided.
Answers are plain numbers, as −log10 of the molar value.

Cn1cc(Cn2c(CN3CCC(c4cccc5c4OC(C)(c4ccc(Cl)cc4F)O5)CC3)nc3ccc(C(=O)O)cc32)nn1 (stereo not shown) [Example 63] = 8.28

// for each compound in input: emit pEC50
1. CCc1ccc(C2(C)Oc3cccc(C4CCN(Cc5nc6ccc(C(=O)O)cc6n5CCOC)CC4)c3O2)cc1 (stereo not shown) [Example 29]
2. COCCn1c(CN2CCC(c3cccc4c3OC(C)(c3ccc(C)cc3)O4)CC2)nc2ccc(C(=O)O)cc21 (stereo not shown) [Example 84]
3. CC1(c2ccc(Cl)cc2F)Oc2cccc(C3CCN(Cc4nc5ccc(C(=O)O)cc5n4Cc4cocn4)CC3)c2O1 (stereo not shown) [Example 58]

Out:
1. 8.28
2. 8.04
3. 8.40

---

molecular target: human GLP-1R (Homo sapiens (Human), UniProt P43220, L260F); experiment: CHO GLP-1R Clone C6 - Assay 2 (HTRF cAMP agonist assay, low receptor density); conditions: read-out: Assay 2 EC50; CHO GLP-1R Clone C6 (low receptor density), cAMP HTRF; geometric mean
Measured Metric: EC50 (nM)
Numbers only, in nM.

// solved cases for EC50 follow
COCCn1c(CN2CCC(c3cccc4c3OC(C)(c3ccc(Cl)cn3)O4)CC2)nc2ccc(C(=O)O)cc21.N (centres unmarked) = 72
CC1(c2ccc(C#N)cc2F)Oc2cccc(C3CCN(Cc4nc5ccc(C(=O)O)cc5n4Cc4ncco4)CC3)c2O1.N (centres unmarked) = 5.4

// for each compound in input: emit EC50
1. COCCn1c(CN2CCC(c3cccc4c3OC(C)(c3ccc(OC)cc3F)O4)CC2)nc2ccc(C(=O)O)cc21 (centres unmarked)
2. COCCn1c(CN2CCN(c3cccc4c3OC(C)(c3ccc(Cl)cc3F)O4)CC2)nc2ccc(C(=O)O)cc21 (centres unmarked)
3. CC1(c2ccc(Cl)cc2F)Oc2cccc(C3CCN(Cc4nc5ccc(C(=O)O)cc5n4Cc4cocn4)CC3)c2O1 (centres unmarked)
4. COCCn1c(CN2CCC(c3cccc4c3OC(C)(c3ccccc3C)O4)CC2)nc2ccc(C(=O)O)cc21 (centres unmarked)
5. CCn1cncc1Cn1c(CN2CCC(c3cccc4c3O[C@@](C)(c3ccc(Cl)cc3F)O4)CC2)nc2ccc(C(=O)O)cc21 (single isomer, unassigned)
6. COCCn1c(CN2CCC(c3cccc4c3OC(C)(c3ccc(Cl)cc3F)O4)CC2)nc2ncc(C(=O)O)cc21 (centres unmarked)
7. O=C(O)c1ccc2nc(CN3CCC(c4cccc5c4O[C@@H](c4ccc(Cl)cc4F)O5)CC3)n(C[C@@H]3CCO3)c2c1

Out:
[170, 25, 23, 360, 1.1, 45, 23]

---

Exercise: state measured Emax for each of the compounds provided.
target: human GLP-1R (Homo sapiens, UniProt P43220, G168S); assay: CHO GLP-1R Clone H6 - Assay 1 (HTRF cAMP agonist assay); type: cell-based; conditions: CHO GLP-1R Clone H6; arithmetic mean, relative to saturating GLP-1 (1 μM)
Give bare numbers, in %.

// solved cases for Emax follow
CC1(c2ccc(Cl)cc2F)Oc2cccc(C3CCN(Cc4nc5ccc(C(=O)O)cc5n4CCO)CC3)c2O1 (stereo not drawn) [Example 75] = 82
CC1(c2ccc(Cl)cc2F)Oc2cccc(C3CCN(Cc4nc5ccc(C(=O)O)cc5n4Cc4ncco4)CC3)c2O1 (stereo not drawn) [Example 80] = 87
CC1(c2ccc(Cl)cc2F)Oc2cccc(C3CCN(Cc4nc5ccc(C(=O)O)cc5n4CCN4CCOC4=O)CC3)c2O1 (stereo not drawn) [Example 46] = 95
CN(CCn1c(CN2CCC(c3cccc4c3OC(C)(c3ccc(Cl)cc3F)O4)CC2)nc2ccc(C(=O)O)cc21)S(C)(=O)=O (stereo not drawn) [Example 71] = 80
CC1(c2ccc(Cl)cc2F)Oc2c(F)ccc(C3CCN(Cc4nc5ccc(C(=O)O)cc5n4C[C@@H]4CCO4)CC3)c2O1 (single isomer, unassigned) [Example 96] = 85

// for each compound in input: emit Emax
1. COCCn1c(CN2CCC(c3cccc4c3OC(C)(c3cccc(C)c3)O4)CC2)nc2ccc(C(=O)O)cc21 (stereo not drawn) [Example 85]
2. COCCn1c(CN2CCC(c3cccc4c3OC(C)(c3ccc(F)cc3)O4)CC2)nc2ccc(C(=O)O)cc21 (stereo not drawn) [Example 38]
3. COCCn1c(CN2CCN(c3cccc4c3OC(c3ccc(Cl)cc3F)O4)CC2)nc2ccc(C(=O)O)cc21 (single isomer, unassigned) [Example 1]

Out:
[80, 87, 99]

// for each compound in input: emit Emax
1. COCCn1c(CN2CCC(c3cccc4c3OC(C)(c3ccc(OC)cc3F)O4)CC2)nc2ccc(C(=O)O)cc21 (stereo not drawn) [Example 35]
2. CC1(c2ccc(Cl)cc2F)Oc2cccc(C3CCN(Cc4nc5ccc(C(=O)O)nc5n4Cc4cnco4)CC3)c2O1 (stereo not drawn) [Example 81]
3. CC1(c2ccc(Cl)cc2F)Oc2cccc(C3CCN(Cc4nc5ccc(C(=O)O)cc5n4CCc4ncc[nH]4)CC3)c2O1 (stereo not drawn) [Example 74]

Out:
86
110
90

---

molecular target: human GLP-1R (Homo sapiens (Human), UniProt P43220, L260F); experiment: CHO GLP-1R Clone C6 - Assay 2 (HTRF cAMP agonist assay, low receptor density); conditions: read-out: Assay 2 Emax (%), CHO GLP-1R Clone C6 (low receptor density); arithmetic mean, relative to saturating GLP-1 (1 μM)
Measured Metric: Emax (%)
Numbers only, in %.

COCCn1c(CN2CCC(c3cccc4c3OC(C)(c3ccc(C#N)cc3)O4)CC2)nc2ccc(C(=O)O)cc21 (stereo not shown) = 88
CC1(c2ccc(Cl)cc2F)Oc2cccc(C3CCN(Cc4nc5ccc(C(=O)O)cc5n4CCCn4cncn4)CC3)c2O1 (stereo not shown) = 64
CC1(c2ccc(Cl)cn2)Oc2cccc(C3CCN(Cc4nc5ccc(C(=O)O)cc5n4C[C@@H]4CCO4)CC3)c2O1 (single isomer, unassigned) = 96
CC1(c2ccc(Cl)cc2F)Oc2cccc(C3CCN(Cc4nc5ccc(C(=O)O)cc5n4C4CCOC4)CC3)c2O1 (stereo not shown) = 85

// for each compound in input: emit Emax
1. COCCn1c(CN2CCC(c3cccc4c3OC(C)(c3ccc(C)cc3)O4)CC2)nc2ccc(C(=O)O)cc21 (stereo not shown)
2. Cn1c(CN2CCC(c3cccc4c3O[C@@](C)(c3ccc(Cl)cc3F)O4)CC2)nc2ccc(C(=O)O)cc21
3. CN(C)S(=O)(=O)CCn1c(CN2CCC(c3cccc4c3OC(C)(c3ccc(Cl)cc3F)O4)CC2)nc2ccc(C(=O)O)cc21 (stereo not shown)

Out:
[86, 85, 76]

The origin of these recorded values is patent US10676465B2.
